- Run description: Bioavailability in rat
- Format: ADME, organism-based
- Run parameters: in vivo
Metric name: bioavailability (%)
Express it in %; write the number only.

Name the recorded bioavailability for CCCN(c1ncccn1)C1CCN(C[C@H]2CN([C@H](CC3CCC3)C(=O)O)C[C@@H]2c2cccc(F)c2)CC1 . 29

Name the recorded bioavailability for CCCN(c1ncccn1)C1CCN(C[C@H]2CN([C@@H](C(=O)O)C3CCCCC3)C[C@@H]2c2ccccc2)CC1 . 8

Name the recorded bioavailability for CCCN(c1ccccn1)C1CCN(C[C@H]2CN([C@@H](C(=O)O)C3CCCCC3)C[C@@H]2c2ccccc2)CC1 . 20

Name the recorded bioavailability for CCCN(c1ncccn1)C1CCN(C[C@H]2CN([C@@H](C(=O)O)C3CCCCC3)C[C@@H]2c2cccc(F)c2)CC1 . 20

Name the recorded bioavailability for CCCN(c1cccnc1)C1CCN(C[C@H]2CN([C@@H](C(=O)O)C3CCCCC3)C[C@@H]2c2ccccc2)CC1 . 8

Name the recorded bioavailability for CCN(c1ncccn1)C1CCN(C[C@H]2CN([C@H](CC3CCC3)C(=O)O)C[C@@H]2c2cccc(F)c2)CC1 . 33

Name the recorded bioavailability for CCCN(c1ncc(C(F)(F)F)cn1)C1CCN(C[C@H]2CN([C@H](CC3CCC3)C(=O)O)C[C@@H]2c2cccc(F)c2)CC1 . 72

Name the recorded bioavailability for CCCN(c1nccc(C(F)(F)F)n1)C1CCN(C[C@H]2CN([C@H](CC3CCC3)C(=O)O)C[C@@H]2c2cccc(F)c2)CC1 . 25

Name the recorded bioavailability for CCCN(c1cncnc1)C1CCN(C[C@H]2CN([C@H](CC3CCC3)C(=O)O)C[C@@H]2c2cccc(F)c2)CC1 . 8

* * *

- Target entity: C-C chemokine receptor type 5 (Homo sapiens, UniProt P51681)
- Sequence (P51681 whole entry): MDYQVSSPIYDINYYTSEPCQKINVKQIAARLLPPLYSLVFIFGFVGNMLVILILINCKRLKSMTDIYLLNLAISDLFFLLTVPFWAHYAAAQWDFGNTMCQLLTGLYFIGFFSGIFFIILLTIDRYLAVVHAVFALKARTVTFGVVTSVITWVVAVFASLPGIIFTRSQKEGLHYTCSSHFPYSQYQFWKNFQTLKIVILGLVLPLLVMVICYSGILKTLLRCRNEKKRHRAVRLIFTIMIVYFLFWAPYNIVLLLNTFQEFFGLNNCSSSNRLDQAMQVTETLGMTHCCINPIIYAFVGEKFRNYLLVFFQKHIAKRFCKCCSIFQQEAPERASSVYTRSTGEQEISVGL
- Run description: Displacement inhibition of 125-I labeled MIP-alpha from CCR5 receptor expressed on CHO cell membranes
Provide the recorded IC50 for the entries that follow.
Express it in nM; write the number only.

Given the entry CCCN(c1cccnc1)C1CCN(C[C@H]2CN([C@@H](C(=O)O)C3CCCCC3)C[C@@H]2c2ccccc2)CC1 , what IC50 was observed with C-C chemokine receptor type 5 (Homo sapiens, UniProt P51681)? 5

Given the entry C=CCN(c1ccccn1)C1CCN(C[C@H]2CN(C(=O)C3CCCCC3)C[C@@H]2c2ccccc2)CC1 , what IC50 was observed with C-C chemokine receptor type 5 (Homo sapiens, UniProt P51681)? 6

Given the entry CCCN(c1ccccn1)C1CCN(C[C@H]2CN(C(=O)c3ccccc3Cl)C[C@@H]2c2ccccc2)CC1 , what IC50 was observed with C-C chemokine receptor type 5 (Homo sapiens, UniProt P51681)? 14

Given the entry C=CCN(c1ccccc1)C1CCN(C[C@H]2CN(C(=O)C3CCCCC3)C[C@@H]2c2ccccc2)CC1 , what IC50 was observed with C-C chemokine receptor type 5 (Homo sapiens, UniProt P51681)? 42

* * *

- Run description: Maximum plasma concentration was evaluated in rat
- Format: ADME, organism-based
Provide the recorded Cmax for the entries that follow.
Express it in nM; write the number only.

Name the recorded Cmax for CCCN(c1ncccn1)C1CCN(C[C@H]2CN([C@H](CC3CCC3)C(=O)O)C[C@@H]2c2cccc(F)c2)CC1 . 256

Name the recorded Cmax for CCCN(c1cccnc1)C1CCN(C[C@H]2CN([C@@H](C(=O)O)C3CCCCC3)C[C@@H]2c2ccccc2)CC1 . 19

Name the recorded Cmax for CCCN(c1ncc(C(F)(F)F)cn1)C1CCN(C[C@H]2CN([C@H](CC3CCC3)C(=O)O)C[C@@H]2c2cccc(F)c2)CC1 . 433

Name the recorded Cmax for CCCN(c1ccccn1)C1CCN(C[C@H]2CN([C@@H](C(=O)O)C3CCCCC3)C[C@@H]2c2ccccc2)CC1 . 53
